- tested.system: 5-hydroxytryptamine receptor 7 (Homo sapiens) (UniProt P34969)
- Sequence (P34969 whole entry): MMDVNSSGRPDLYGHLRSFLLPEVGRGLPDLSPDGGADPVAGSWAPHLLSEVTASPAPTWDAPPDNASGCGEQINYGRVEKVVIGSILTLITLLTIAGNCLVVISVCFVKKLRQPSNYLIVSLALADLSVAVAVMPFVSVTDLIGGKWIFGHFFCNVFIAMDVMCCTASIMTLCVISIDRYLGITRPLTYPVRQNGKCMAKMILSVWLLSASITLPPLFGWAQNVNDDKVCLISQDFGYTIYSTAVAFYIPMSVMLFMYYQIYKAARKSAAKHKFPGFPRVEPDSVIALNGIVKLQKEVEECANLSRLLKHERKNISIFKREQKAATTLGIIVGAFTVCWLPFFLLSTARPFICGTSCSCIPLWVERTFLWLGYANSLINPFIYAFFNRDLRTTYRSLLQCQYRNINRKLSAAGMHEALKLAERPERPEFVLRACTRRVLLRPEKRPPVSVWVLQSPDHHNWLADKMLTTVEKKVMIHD
- protocol: Displacement of [3H]LSD from human 5HT7 receptor expressed in CHO cells at 1 uM by scintillation counting analysis
- Assay type: cell-based
measurement.name: inhibition (%)

| compound | inhibition / % |
| --- | --- |
| COc1ccccc1N1CCN(CCCCN2C(=O)NC3(CCCc4ccccc43)C2=O)CC1 (centres undefined) | 99 |
| O=C1NC2(CCc3ccccc32)C(=O)N1CCCCN1CCN(c2cccc(Cl)c2)CC1 (centres undefined) | 99 |
| O=C1NC2(CCCc3ccccc32)C(=O)N1CCCCN1CCN(c2cccc(Cl)c2)CC1 (centres undefined) | 100 |
| COc1ccccc1N1CCN(CCCCN2C(=O)NC3(CCc4ccccc43)C2=O)CC1 (centres undefined) | 98 |
